# Tested on: parent elite stiff stalk inbred corn
# EXPERIMENT: Preemergence effect of ALS herbicides (fresh weight, visual injury)
# TEST_CONDITIONS: 200 g/ha, 4 weeks after treatment, 0% no injury, 100% plant death, mean of four replications
PROPERTY: % Visual Injury Patent elite stiff stalk inbred (%)
Field format: number, assumed %, no unit text.

Recorded results for 3 molecules are shown here.
MOLECULE | SUBJECT_OF_TEST | DATA_VALUE
Cc1ccn2nc(S(=O)(=O)Nc3c(F)cccc3F)nc2n1 [Flumetsulam] | parent elite stiff stalk inbred corn | 13
COC(=O)c1ccccc1CS(=O)(=O)NC(=O)Nc1nc(OC)cc(OC)n1 [Bensulfuron-methyl] | parent elite stiff stalk inbred corn | 23
CCS(=O)(=O)c1nc2ccccn2c1S(=O)(=O)NC(=O)Nc1nc(OC)cc(OC)n1 [Sulfosulfuron] | parent elite stiff stalk inbred corn | 100

Kindly review the next molecule as well.
Value of % Visual Injury Patent elite stiff stalk inbred reported for the molecule COc1nn(C(=O)NS(=O)(=O)c2ccccc2OC(F)(F)F)c(=O)n1C [Flucarbazone Na^+] is 100

* * *

# Test system: heterozygous GAT-HRA corn
# EXPERIMENT: Postemergence effect of ALS herbicides, glyphosate and glufosinate (fresh weight, visual injury)
# TEST_CONDITIONS: 200 g/ha (glyphosate 3472 g ae/ha, glufosinate ammonium 1870 g/ha), 2 weeks after treatment, 0% no injury, 100% plant death, mean of four replications
PROPERTY: % Visual Injury Heterozygous GAT-HRA

COMPOUND | PROPERTY | DATA_VALUE
COc1nn(C(=O)NS(=O)(=O)c2ccccc2OC(F)(F)F)c(=O)n1C | % Visual Injury Heterozygous GAT-HRA | 14%
COC(=O)c1ccccc1CS(=O)(=O)NC(=O)Nc1nc(OC)cc(OC)n1 | % Visual Injury Heterozygous GAT-HRA | 14%
CC(C)C1(C)N=C(c2nc3ccccc3cc2C(=O)O)NC1=O (stereo not shown) | % Visual Injury Heterozygous GAT-HRA | 2%
COCc1cnc(C2=NC(C)(C(C)C)C(=O)N2)c(C(=O)O)c1 (stereo not shown) | % Visual Injury Heterozygous GAT-HRA | 4%
COc1cc(OC)nc(Sc2cccc(Cl)c2C(=O)[O-])n1.[Na+] [Pyrithiobac Na^+, pyrithiobac-sodium] | % Visual Injury Heterozygous GAT-HRA | 9%

Entry CC(C)C1(C)N=C(c2ncccc2C(=O)O)NC1=O (stereo not shown) ; % Visual Injury Heterozygous GAT-HRA = 1%

Reported % Visual Injury Heterozygous GAT-HRA of COc1cc(OC)nc(NC(=O)NS(=O)(=O)c2ncccc2OCC(F)(F)F)n1 : 29%

Query CCOC(=O)c1ccccc1S(=O)(=O)NC(=O)Nc1nc(Cl)cc(OC)n1 yields % Visual Injury Heterozygous GAT-HRA of 15%

Lookup result for COC(=O)c1ccccc1S(=O)(=O)NC(=O)N(C)c1nc(C)nc(OC)n1 ; measured % Visual Injury Heterozygous GAT-HRA: 8%

The reported value for COc1nc(C)nc(NC(=O)NS(=O)(=O)c2ccccc2CCC(F)(F)F)n1 in terms of % Visual Injury Heterozygous GAT-HRA is 29%

* * *

# Tested on: heterozygous GAT-HRA corn
# EXPERIMENT: Preemergence effect of ALS herbicides (fresh weight, visual injury)
# TEST_CONDITIONS: 200 g/ha, 4 weeks after treatment, 0% no injury, 100% plant death, mean of four replications
Measured % Visual Injury Heterozygous GAT-HRA accompanies every entry in the list below.
Give your result in % as a bare value.

Entry Cc1ccn2nc(S(=O)(=O)Nc3c(F)cccc3F)nc2n1 ; % Visual Injury Heterozygous GAT-HRA = 13

response.value for COC(=O)c1cccc(C)c1S(=O)(=O)NC(=O)Nc1nc(OCC(F)(F)F)nc(N(C)C)n1 (field: % Visual Injury Heterozygous GAT-HRA) = 5

Memo: COc1nn(C(=O)NS(=O)(=O)c2ccccc2OC(F)(F)F)c(=O)n1C , reported % Visual Injury Heterozygous GAT-HRA: 40

Sample COC(=O)c1ccccc1S(=O)(=O)NC(=O)N(C)c1nc(C)nc(OC)n1 ; % Visual Injury Heterozygous GAT-HRA observed: 25
